- Target Desc: human SPR (Homo sapiens (Human), UniProt P35270)
- Sequence (P35270 whole entry): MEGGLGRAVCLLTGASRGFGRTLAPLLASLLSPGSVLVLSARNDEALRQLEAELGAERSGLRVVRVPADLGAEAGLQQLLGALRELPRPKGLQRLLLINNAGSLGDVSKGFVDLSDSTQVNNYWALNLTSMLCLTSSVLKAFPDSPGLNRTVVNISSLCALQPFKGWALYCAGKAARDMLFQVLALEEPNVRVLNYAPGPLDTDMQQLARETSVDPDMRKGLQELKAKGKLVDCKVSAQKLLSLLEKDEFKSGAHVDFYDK
- Experimental Protocol: Evaluation Example 2: Measurement of human SPR inhibitory activity (seven concentrations, sepiapterin absorbance at 420 nm)
- Format: biochemical
- Experimental Conditions: Evaluation Example 2, seven concentrations 0.14 nM to 100 nM, 240 minutes at room temperature, read-out: IC50
pIC50: −log10 of the molar value. Where a name gives a salt, the structure may show the parent alone.

Compound	pIC50
Cc1nn2c(O)c(C(=O)NC3CC3)c(=O)n(CC(C)C)c2c1/C=C/C(=O)N1CCC[C@H]1C	8.96
CC(C)Cn1c(=O)c(C(=O)NC2CC2)c(O)n2ncc(CC(=O)N3CCOCC3)c12 [Synthesis Example 264]	9.02
CC(C)(C)Cn1c(=O)c(C(=O)NC2CC2)c(O)n2nc(N)c(/C=C/C3CCOC3)c12 (centres unmarked) [Synthesis Example 444, hydrochloride]	9.01
CC1(Cn2c(=O)c(C(=O)NC3CC3)c(O)n3ncc(/C=C/C(=O)N4CCOCC4)c23)CC1 [Synthesis Example 366]	9.12
CC(C)(C)Cn1c(=O)c(C(=O)NC2CC2)c(O)n2nc(-c3n[nH]c4ncccc34)cc12 [Synthesis Example 306]	8.03
COC[C@H]1COCCN1C(=O)/C=C/c1cnn2c(O)c(C(=O)NC3CC3)c(=O)n(CC(C)C)c12	9.14
CC(C)Cn1c(=O)c(C(=O)NC2CC2)c(O)n2ncc(/C=C/C(=O)N3CCOC[C@H]3c3ccccc3)c12	8.94
C/C(=C\c1cnn2c(O)c(C(=O)NC3CC3)c(=O)n(CC(C)C)c12)C(=O)O [Synthesis Example 252]	8.15
CC(C)Cn1c(=O)c(C(=O)NC2CC2)c(O)n2ncc(C(=O)N(C)Cc3cccnc3)c12 [Synthesis Example 230]	9.03
CC(C)(C)Cn1c(=O)c(C(=O)NC2CC2)c(O)n2nc(N3CC[C@@H](N)C3)cc12 [Synthesis Example 341]	8.59
CC(C)(C)Cn1c(=O)c(C(=O)NC2CC2)c(O)n2nc(Nc3cnc(C(=O)N4CCC(C#N)CC4)cn3)cc12 [Synthesis Example 359]	9.06
CC(C)Cn1c(=O)c(C(=O)NC2CC2)c(O)n2ncc(C(=O)NCc3ccncc3)c12 [Synthesis Example 217]	9.16
Cc1nn2c(O)c(C(=O)NC3CC3)c(=O)n(CC(C)C)c2c1/C=C/C(=O)N1C[C@@H](C)OC[C@@H]1C [Synthesis Example 647]	9.09
Cc1nn2c(O)c(C(=O)NC3CC3)c(=O)n(CC(C)C)c2c1/C=C/C(=O)N1CCC(F)(F)CC1C (centres unmarked) [Synthesis Example 672]	9.07

* * *

- Target Desc: human SPR (Homo sapiens (Human), UniProt P35270)
- Experimental Protocol: Evaluation Example 2: Measurement of human SPR inhibitory activity (seven concentrations, sepiapterin absorbance at 420 nm)
- Assay type: biochemical
- Experimental Conditions: Evaluation Example 2, seven concentrations 0.14 nM to 100 nM, 240 minutes at room temperature, read-out: IC50

Compound	Target Desc	IC50, nM
COC[C@@H]1CCCN1C(=O)/C=C/c1cnn2c(O)c(C(=O)NC3CC3)c(=O)n(CC(C)C)c12	human SPR (Homo sapiens (Human), UniProt P35270)	0.73
CC(C)Cn1c(=O)c(C(=O)NC2CC2)c(O)n2ncc(/C=C/C(=O)N3CCC[C@H]3c3cccnc3)c12	human SPR (Homo sapiens (Human), UniProt P35270)	1.1
CC(C)(C)Cn1c(=O)c(C(=O)NC2CC2)c(O)n2nc3c(c12)COC(=O)N3 [Synthesis Example 400]	human SPR (Homo sapiens (Human), UniProt P35270)	0.7
COC[C@H]1COCCN1C(=O)/C=C/c1cnn2c(O)c(C(=O)NC3CC3)c(=O)n(CC3(C)CC3)c12 [Synthesis Example 371]	human SPR (Homo sapiens (Human), UniProt P35270)	0.61
CC(C)Cn1c(=O)c(C(=O)NC2CC2)c(O)n2ncc(/C=C/C(=O)N(C)CC(C)(C)O)c12	human SPR (Homo sapiens (Human), UniProt P35270)	0.66
Cc1nn2c(O)c(C(=O)NC3CC3)c(=O)n(CC(C)C)c2c1/C=C/C(=O)N1CCCC1	human SPR (Homo sapiens (Human), UniProt P35270)	0.95
Cc1nn2c(O)c(C(=O)NC3CC3)c(=O)n(CC(C)C)c2c1/C=C/C(=O)N1CCCC1C1CC1 (centres unmarked) [Synthesis Example 619]	human SPR (Homo sapiens (Human), UniProt P35270)	1.58
O=C(NC1CC1)c1c(O)n2nc(Nc3cnccn3)cc2n(CC2CCOCC2)c1=O [Synthesis Example 350]	human SPR (Homo sapiens (Human), UniProt P35270)	0.75
Cc1nn2c(O)c(C(=O)NC3CC3)c(=O)n(CC(C)C)c2c1/C=C/C(=O)N1CCC[C@@H]1C(C)(C)O	human SPR (Homo sapiens (Human), UniProt P35270)	1.22
CC(C)Cn1c(=O)c(C(=O)NC2CC2)c(O)n2ncc(/C=C/C(=O)N3CCC[C@@H]3C(N)=O)c12	human SPR (Homo sapiens (Human), UniProt P35270)	0.97
Cc1nnc(/C=C/c2cnn3c(O)c(C(=O)NC4CC4)c(=O)n(CC(C)C)c23)s1 [Synthesis Example 268]	human SPR (Homo sapiens (Human), UniProt P35270)	1.04
CNc1nn2c(O)c(C(=O)NC3CC3)c(=O)n(CC3(C)CCOCC3)c2c1/C=C/C1CCOCC1	human SPR (Homo sapiens (Human), UniProt P35270)	1.23
CC1(Cn2c(=O)c(C(=O)NC3CC3)c(O)n3ncc(/C=C/C(=O)N4C[C@@H]5C[C@H]4CO5)c23)CC1 [Synthesis Example 374]	human SPR (Homo sapiens (Human), UniProt P35270)	0.65
Cc1nccnc1Nc1cc2n(CC(C)(C)C)c(=O)c(C(=O)NC3CC3)c(O)n2n1 [Synthesis Example 328]	human SPR (Homo sapiens (Human), UniProt P35270)	1.56

* * *

Reported IC50 values follow for various compounds
- Target Desc: human SPR (Homo sapiens (Human), UniProt P35270)
- Experimental Protocol: Evaluation Example 2: Measurement of human SPR inhibitory activity (seven concentrations, sepiapterin absorbance at 420 nm)
- Format: biochemical
- Experimental Conditions: Evaluation Example 2, seven concentrations 0.14 nM to 100 nM, 240 minutes at room temperature, read-out: IC50
Counter-ions that a name gives are not always drawn.
Quantity Name: IC50 (nM)

Compound	Measurement
CC(C)Cn1c(=O)c(C(=O)NC2CC2)c(O)n2ncc(/C=C/C(=O)N3CC[C@H](F)C3)c12	0.75
CC(C)Cn1c(=O)c(C(=O)NC2CC2)c(O)n2ncc(/C=C/C3CCNCC3)c12 [Synthesis Example 241, hydrochloride]	1.98
CC(C)Cn1c(=O)c(C(=O)NC2CC2)c(O)n2ncc(/C=C/C(=O)N(C)CC3CCOCC3)c12	0.74
CC(C)Cn1c(=O)c(C(=O)NC2CC2)c(O)n2nc(/N=C/N(C)C)cc12 [Synthesis Example 363, hydrochloride]	1.61

* * *

- Target Desc: human SPR (Homo sapiens (Human))
- Experimental Protocol: Evaluation Example 2: Measurement of human SPR inhibitory activity (seven concentrations, sepiapterin absorbance at 420 nm)
- Type: biochemical
- Experimental Conditions: Evaluation Example 2, seven concentrations 0.14 nM to 100 nM, 240 minutes at room temperature, read-out: IC50
pIC50: −log10 of the molar value. Structures can show the parent of a compound that is named as a salt.
In this section, each of the compounds is paired with its reported pIC50.

Compound	Target Desc	pIC50
CC(C)(C)Cn1c(=O)c(C(=O)NC2CC2)c(O)n2nc(-c3cnc(N)nc3)cc12 [Synthesis Example 289]	human SPR (Homo sapiens (Human))	8.69
Cc1nn2c(O)c(C(=O)NC3CC3)c(=O)n(CC(C)C)c2c1/C=C/C(=O)N1CCO[C@@H](C)C1 [Synthesis Example 680]	human SPR (Homo sapiens (Human))	9.09
CC(C)(C)Cn1c(=O)c(C(=O)NC2CC2)c(O)n2nc(Nc3cncc(C#N)n3)cc12 [Synthesis Example 324]	human SPR (Homo sapiens (Human))	8.79
CN(C)C(=O)c1cn[nH]c1-c1cc2n(CC(C)(C)C)c(=O)c(C(=O)NC3CC3)c(O)n2n1 [Synthesis Example 314, hydrochloride]	human SPR (Homo sapiens (Human))	9.03
CC1(Cn2c(=O)c(C(=O)NC3CC3)c(O)n3nc(N)c(/C=C/C4CCOCC4)c23)CCOCC1 [Synthesis Example 445, hydrochloride]	human SPR (Homo sapiens (Human))	9.18
CC(C)Cn1c(=O)c(C(=O)NC2CC2)c(O)n2ncc(/C=C/C(=O)N3CC[C@@H](F)C3)c12 [compound 481]	human SPR (Homo sapiens (Human))	9.12
CC(C)(C)Cn1c(=O)c(C(=O)NC2CC2)c(O)n2nc3c(c12)CC(=O)N3 [Synthesis Example 402]	human SPR (Homo sapiens (Human))	9.20
CC(C)(C)Cn1c(=O)c(C(=O)NC2CC2)c(O)n2nc3nccnc3c12 [Synthesis Example 392]	human SPR (Homo sapiens (Human))	8.82
O=C(NC1CC1)c1c(O)n2ncc(/C=C/C(=O)N3C4CCC3COC4)c2n(CC2(F)CC2)c1=O [Synthesis Example 376]	human SPR (Homo sapiens (Human))	9.14
CC(C)Cn1c(=O)c(C(=O)NC2CC2)c(O)n2ncc(/C=C/C(=O)N3CCOC[C@@H]3C)c12 [compound 455]	human SPR (Homo sapiens (Human))	9.14
CC(C)Cn1c(=O)c(C(=O)NC2CC2)c(O)n2ncc(/C=C/C(=O)N3CCC[C@@H]3C(F)(F)F)c12 [compound 485]	human SPR (Homo sapiens (Human))	8.96
CC(C)Cn1c(=O)c(C(=O)NC2CC2)c(O)n2ncc(/C=C/C(=O)N3CCC[C@H]3C(F)(F)F)c12 [compound 484]	human SPR (Homo sapiens (Human))	8.92
CC(C)(C)Cn1c(=O)c(C(=O)NC2CC2)c(O)n2nc(-c3cncnc3)cc12 [Synthesis Example 288]	human SPR (Homo sapiens (Human))	8.86
CC1(Cn2c(=O)c(C(=O)NC3CC3)c(O)n3ncc(/C=C/C(=O)N4C5CCC4COC5)c23)CC1 [Synthesis Example 367]	human SPR (Homo sapiens (Human))	9.21
